# SUBJECT OF TEST: T1, human ferroportin (SLC40A1) fused in frame with GFP, stably expressed in HEK293 cells (human, UniProt Q9NP59 1-571)
# T1 sequence (looked up): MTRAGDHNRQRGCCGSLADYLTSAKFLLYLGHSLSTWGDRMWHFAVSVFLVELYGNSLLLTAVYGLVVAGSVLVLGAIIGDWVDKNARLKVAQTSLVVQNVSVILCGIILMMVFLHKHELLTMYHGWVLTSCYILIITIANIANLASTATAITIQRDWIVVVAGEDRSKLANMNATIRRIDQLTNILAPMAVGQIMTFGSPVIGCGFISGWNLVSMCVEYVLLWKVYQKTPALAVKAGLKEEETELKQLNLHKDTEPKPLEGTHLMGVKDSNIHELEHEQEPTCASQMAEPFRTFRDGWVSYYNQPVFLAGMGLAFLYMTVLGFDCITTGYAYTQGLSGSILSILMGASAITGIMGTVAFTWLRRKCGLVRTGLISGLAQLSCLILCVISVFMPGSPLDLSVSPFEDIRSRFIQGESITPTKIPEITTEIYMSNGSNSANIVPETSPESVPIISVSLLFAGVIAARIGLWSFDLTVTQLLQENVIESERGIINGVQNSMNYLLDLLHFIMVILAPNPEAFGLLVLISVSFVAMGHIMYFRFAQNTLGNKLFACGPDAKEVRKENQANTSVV
# METHOD NOTES: cell-based or functional assay
Starred links: 1 amine or outer side, 2 acyl side, 3 side chain; linkers in the order of their positions; H or OH if unused. Positions of bridges follow the written chain, without caps; N, C: chain ends. Non-standard residues stand in square brackets, D forms with d. Groups on a side chain read outwards from the residue. *: point of attachment. Glu(OMe) = COC(=O)CC[C@H](N[*:1])C(=O)[*:2]; C18 diacid = O=C(O)CCCCCCCCCCCCCCCCC(=O)*; Dip = N[C@H](C(=O)O)C(c1ccccc1)c1ccccc1; β3hF = N[C@H](CC(=O)O)Cc1ccccc1; hLeu = CC(C)CC[C@H](N)C(=O)O; Isovaleryl = CC(C)CC(=O)*; Dap = NC[C@H](N)C(=O)O; AEEA = NCCOCCOCC(=O)O
QUANTITY NAME: IC50: FPN internalisation (nM)

The examples below pair each entry with its known result.
• XXTXXPCIXXXC ([Isovaleric Acid]-[Glu(OMe)]-T-[4Pal]-[Dpa]-P-C-I-[Lys(1PEG2_1PEG2_Ahx_C18_Diacid)]-[bhPhe]-[(D)Lys]-C-NH2) [Seq. No. 496] = 10.6
• XXTHXPCIXXXC ([Isovaleric Acid]-[Glu(OMe)]-T-H-[Dpa]-P-C-I-[Lys(PEG2_1PEG2_DMG_N_2ae_C18_Diacid)]-[bhPhe]-[(D)Lys]-C-NH2) [Seq. No. 545] = 14.6

a: Isovaleryl-[Glu(OMe)]TH[Dip]PC[hLeu]K([AEEA-AEEA-Dap-C18 diacid])[β3hF][dK]C-NH2 (disulfide 6-11 (inferred)) [Seq. No. 515]
b: XEXHXPCIXXXXC (not fully specified; [Isovaleric Acid]-E-[Dap]-H-[Dpa]-P-C-I-[(D)Lys]-[bhPhe]-[Lys(Ahx_Palm)]-[(D)Lys]-C-NH2) [Seq. No. 549]
Query string: Which has the smaller recorded IC50: FPN internalisation, a or b ? Pick one and reply with its label.
Result string: a

Reference source: patent US20230295259A1
